- assay-system: T1, recombinant mouse NKG2D-Fc (mouse; human, UniProt O54709 90-232)
- T1 construct: extracellular domain; also called mouse NKG2D-Fc fusion protein; Mouse NKG2D-Fc-biotin; not shown: human IgG1 Fc domain
- T1 sequence (looked up): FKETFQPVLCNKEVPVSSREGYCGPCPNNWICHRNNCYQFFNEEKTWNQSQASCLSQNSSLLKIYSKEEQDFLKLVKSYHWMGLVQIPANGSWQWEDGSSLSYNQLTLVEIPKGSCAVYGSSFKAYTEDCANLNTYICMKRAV
- measurement-notes: ELISA, NKG2D-Fc coated
readout-name: binding result

{"binder": "ADI-29429 (antibody, V domains shown) VH: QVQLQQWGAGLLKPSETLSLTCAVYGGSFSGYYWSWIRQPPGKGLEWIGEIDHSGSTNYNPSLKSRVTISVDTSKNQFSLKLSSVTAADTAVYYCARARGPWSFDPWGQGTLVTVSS VL: DIQMTQSPSTLSASVGDRVTITCRASQSIGSWLAWYQQKPGKAPKLLIYKASSLESGVPSRFSGSGSGTEFTLTISSLQPDDFATYYCQQYELYSYTFGGGTKVEIK", "reported-result": "binds"}
{"binder": "ADI-27740 (antibody, V domains shown, also called A40) VH: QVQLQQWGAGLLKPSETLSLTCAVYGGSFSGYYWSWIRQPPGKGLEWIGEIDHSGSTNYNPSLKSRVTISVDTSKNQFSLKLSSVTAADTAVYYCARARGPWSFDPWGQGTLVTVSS VL: DIQMTQSPSTLSASVGDRVTITCRASQSIGSWLAWYQQKPGKAPKLLIYKASSLESGVPSRFSGSGSGTEFTLTISSLQPDDFATYYCQQYHSFYTFGGGTKVEIK", "reported-result": "binds"}
{"binder": "ADI-27741 (antibody, V domains shown) VH: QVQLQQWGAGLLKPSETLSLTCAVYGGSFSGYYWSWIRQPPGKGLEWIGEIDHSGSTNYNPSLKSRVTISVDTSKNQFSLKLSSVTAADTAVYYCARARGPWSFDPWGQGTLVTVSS VL: DIQMTQSPSTLSASVGDRVTITCRASQSIGSWLAWYQQKPGKAPKLLIYKASSLESGVPSRFSGSGSGTEFTLTISSLQPDDFATYYCQQSNSYYTFGGGTKVEIK", "reported-result": "binds"}
